# TEST: Pharmacokinetic evaluation of compounds in mice
# Type: in vivo
# CONDITIONS: mouse, plasma; male CD-1 mice, IV 0.5 mg/kg
Counter-ions that a name gives are not always drawn.
READOUT LABEL: clearance (mL/min/kg)
// note: answer is a bare numeric in mL/min/kg

So what's the measured clearance for this one? Cc1cc(-c2ncc(CNc3nccn4c(-c5cc(F)cc(F)c5)cnc34)cc2C)ccn1 [Compound 30 (hydrochloride)]
5.75

Need clearance of Cc1cc(-c2ncc(CNc3nccn4c(-c5cc(F)cc(F)c5)cnc34)cc2F)ccn1 [Compound 36 (formate)] , thanks.
6.5

# clearance lookup, item Cc1cc(-c2ncc(CNc3nccn4c(-c5cccc(F)c5)cnc34)cc2C)ccn1 [Compound 29 (hydrochloride)]
5.05

* * *

# System: STF reporter gene for WNT pathway (Porcupine of the Wnt signaling pathway)
# TEST: Inhibitory activity on Super-Top-Flash (STF) reporter gene
# Format: cell-based
# CONDITIONS: HEK293 STF and L wnt3A cells 1:1, 24 hours, Bright-Glo
# Description: 1. Assay of Inhibitory Activity on Super-Top-Flash (STF) Reporter Gene HEK293 STF and L wnt3A cells were planted at a ratio of 1:1 in a white 96-well plate with 80 μL of cell suspension per well, which contained 20,000 HEK293 STF cells and 20,000 L wnt3A cells. […] 100 μL of Promega Bright-Glo reagent was added to each well of the cell plate, and the cell plate was incubated at room temperature for 10 minutes to stabilize the luminescence signal. A multi-label analyzer was used to read results. […]
As shown below, each of these compounds has a reported log10 of IC50 value.
Base-10 log of IC50, unit pM.

I am curious: what log10 of IC50 value has been reported for Cc1cc(-c2ncc(CNc3nccn4c(-c5ccccc5)cnc34)cc2C)ccn1 [Compound 1] ?
2.08

Next:
What does the data say about its log10 of IC50? Entry: Cc1cc(-c2ccc(CNc3nccn4c(-c5ccccc5)cnc34)cc2C)ccn1 [Compound 17]
2.36

Give its log10 of IC50 value. Item: Cc1cc(-c2ncc(CNc3nccn4c(C(=O)Nc5ccccc5)cnc34)cc2C)ccn1 [15 (formate)]
2.18

log10 of IC50 for Cc1cc(-c2ncc(CNc3nccn4c(C5CC5)cnc34)cc2C)ccn1 [Compound 10] ?
4.13

# get_value(readout='log10 of IC50', item= CC(=O)N1CCN(c2cnc3c(NCc4cnc(-c5ccnc(C)c5)c(C)c4)nccn23)CC1 [Compound 6] )
2.76

Value lookup for log10 of IC50; key = COc1cc(-c2ncc(CNc3nccn4c(-c5ccccc5)cnc34)cc2C)ccn1 [Compound 20]
2.60

Looking for the measured log10 of IC50 of Cc1cc(-c2ncc(CNc3nccn4c(C5CCN(C(C)C)CC5)cnc34)cc2C)ccn1 [Compound 13 (formate)] , can you help?
2.75

GET /values?readout=log10 of IC50&item= Cc1cc(-c2ccc(CNc3nccn4c(-c5ccccc5)cnc34)cn2)ccn1 [Compound 19]
1.23

Please look up its log10 of IC50: Cc1cc(CNc2nccn3c(-c4ccccc4)cnc23)cnc1-c1ccnn1C [Compound 18]
1.11
